# target.of.assay: the molecule itself
# assay.summary: cross-linking
measurement.kind: binding result

Lab note: YnfK T114A (enzyme, E. coli (strain MG1655), UniProt P0A6E9 1-231, looked up) MLKRFFITGTDTSVGKTVVSRALLQALASQGKTVAGYKPVAKGSKETPEGLRNKDALVLQSVSTIELPYEAVNPIALSEEESSVAHSCPINYTLISNGLANLTEKVDHVVVEGAGGWRSLMNDLRPLSEWVVQEQLPVLMVVGIQEGCINHALLTAQAIANDGLPLIGWVANRINPGLAHYAEIIDVLGKKLPAPLIGELPYLPRAEQRELGQYIRLAMLRSVLAVDRVTV gave binding result of binds
